Tested on: Enterococcus faecium 8
Assay: microbe, parasite or virus in culture
Parameters: CLSI broth microdilution MIC in MHB-II
Conditions: Enterococcus faecium, 8, 18 h, read-out: MIC

smiles structure	units text	qualifier symbol	MIC
CCCCCCCCCCCCCCCC(=O)N[C@@H](CCCNC(=N)N)C(=O)Nc1cccc(CN[C@H](C(=O)O)[C@H](O[C@@H]2O[C@H](CN)[C@@H](O)[C@H]2O)[C@H]2O[C@@H](n3ccc(=O)[nH]c3=O)[C@H](O)[C@@H]2O)c1	mg/L	=	1
CCCCCCCCCCCCCCCC(=O)N[C@@H](CCCNC(=N)N)C(=O)Nc1ccc(CN[C@H](C(=O)O)[C@H](O[C@@H]2O[C@H](CN)[C@@H](O)[C@H]2O)[C@H]2O[C@@H](n3ccc(=O)[nH]c3=O)[C@H](O)[C@@H]2O)cc1	mg/L	=	0.5
CN[C@H](CC(C)C)C(=O)N[C@H]1C(=O)N[C@@H](CC(N)=O)C(=O)N[C@H]2C(=O)N[C@H]3C(=O)N[C@H](C(=O)N[C@H](C(=O)O)c4cc(O)cc(O)c4-c4cc3ccc4O)[C@H](O)c3ccc(c(Cl)c3)Oc3cc2cc(c3O[C@@H]2O[C@H](CO)[C@@H](O)[C@H](O)[C@H]2O[C@H]2C[C@](C)(N)[C@H](O)[C@H](C)O2)Oc2ccc(cc2Cl)[C@H]1O	mg/L	=	1
CCCCCCCCCCCCCCCC(=O)N[C@@H](CCCCN)C(=O)NCc1cccc(CN[C@H](C(=O)O)[C@H](O[C@@H]2O[C@H](CN)[C@@H](O)[C@H]2O)[C@H]2O[C@@H](n3ccc(=O)[nH]c3=O)[C@H](O)[C@@H]2O)c1	mg/L	=	0.5
C[C@H]1COc2c(N3CCN(C)CC3)c(F)cc3c(=O)c(C(=O)O)cn1c23	mg/L	>	32
CCCCCCCCCCCCCCCC(=O)N[C@@H](CCCCN)C(=O)Nc1cccc(CN[C@H](C(=O)O)[C@H](O[C@@H]2O[C@H](CN)[C@@H](O)[C@H]2O)[C@H]2O[C@@H](n3ccc(=O)[nH]c3=O)[C@H](O)[C@@H]2O)c1	mg/L	=	0.5
CC1(C)S[C@@H]2[C@H](NC(=O)[C@H](N)c3ccccc3)C(=O)N2[C@H]1C(=O)O	mg/L	=	128
CCCCCCCCCCCCCCCC(=O)N[C@@H](CCCCN)C(=O)Nc1ccc(CN[C@H](C(=O)O)[C@H](O[C@@H]2O[C@H](CN)[C@@H](O)[C@H]2O)[C@H]2O[C@@H](n3ccc(=O)[nH]c3=O)[C@H](O)[C@@H]2O)cc1	mg/L	=	0.25
CCCCCCCCCCCCCCCC(=O)N[C@@H](CCCNC(=N)N)C(=O)NCc1ccc(CN[C@H](C(=O)O)[C@H](O[C@@H]2O[C@H](CN)[C@@H](O)[C@H]2O)[C@H]2O[C@@H](n3ccc(=O)[nH]c3=O)[C@H](O)[C@@H]2O)cc1	mg/L	=	0.5
CCCCCCCCCCCCCCCC(=O)N[C@@H](CCCNC(=N)N)C(=O)NCc1cccc(CN[C@H](C(=O)O)[C@H](O[C@@H]2O[C@H](CN)[C@@H](O)[C@H]2O)[C@H]2O[C@@H](n3ccc(=O)[nH]c3=O)[C@H](O)[C@@H]2O)c1	mg/L	=	0.5
